testTarget: P2X7 receptor (Homo sapiens (Human))
Sequence (Q99572 whole entry): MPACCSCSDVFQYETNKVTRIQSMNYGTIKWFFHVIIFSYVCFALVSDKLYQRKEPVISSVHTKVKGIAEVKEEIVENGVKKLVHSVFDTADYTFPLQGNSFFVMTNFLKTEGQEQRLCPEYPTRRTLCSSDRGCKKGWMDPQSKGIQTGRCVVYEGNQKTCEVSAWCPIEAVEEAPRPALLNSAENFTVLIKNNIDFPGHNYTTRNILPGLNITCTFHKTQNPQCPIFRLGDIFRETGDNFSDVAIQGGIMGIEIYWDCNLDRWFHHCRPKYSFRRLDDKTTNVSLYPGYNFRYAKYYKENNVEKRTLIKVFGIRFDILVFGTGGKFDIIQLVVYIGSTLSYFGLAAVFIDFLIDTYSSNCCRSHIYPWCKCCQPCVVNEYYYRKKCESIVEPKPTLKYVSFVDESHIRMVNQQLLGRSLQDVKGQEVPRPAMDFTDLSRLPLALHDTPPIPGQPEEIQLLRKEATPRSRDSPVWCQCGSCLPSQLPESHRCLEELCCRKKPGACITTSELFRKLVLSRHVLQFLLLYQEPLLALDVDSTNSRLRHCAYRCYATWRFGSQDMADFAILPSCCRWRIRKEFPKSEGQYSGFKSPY
measurementProtocol: P2X7 FLIPR assay (BzATP-stimulated calcium fluorescence, antagonist IC50)
Format: cell-based
pIC50: −log10 of the molar value.
Outcome label depends on pIC50 relative to 8: at/above gives class 1, below gives class 0.

compound	answerLabel
Cc1ncc(C2(C(C)NC(=O)c3ccccc3Cl)CCC(F)(F)CC2)cn1 (centres unmarked)	class 0

Exam item: decide whether the reported pIC50 for O=C(NCC(c1ccc(F)cc1)c1ccc(C(F)(F)F)nc1)c1cccc(F)c1Cl (single isomer, unassigned; (+)) [(+)2-chloro-3-fluoro-N-[2-(4-fluorophenyl)-2-[6-(trifluorome] is at least 8. class 1

Exam item: decide whether the reported pIC50 for O=C(NCC(CC1CC1)c1cnc(C(F)(F)F)nc1)c1cccc(Cl)c1Cl (single isomer, unassigned; (-)) [(−)2,3-dichloro-N-[3-cyclopropyl-2-[2-(trifluoromethyl)pyrim] is at least 8. class 1

Exam item: decide whether the reported pIC50 for O=C(NCC(c1cnc(C(F)(F)F)nc1)C1CCC(F)(F)CC1)c1ccccc1Cl (single isomer, unassigned; (+)) [(+)2-chloro-N-[2-(4,4-difluorocyclohexyl)-2-[2-(trifluoromet] is at least 8. class 0

----------
Listed here are compounds together with their documented log10(IC50).
testTarget: P2X7 receptor (Homo sapiens (Human))
measurementProtocol: P2X7 FLIPR assay (BzATP-stimulated calcium fluorescence, antagonist IC50)
Type: cell-based
On a log10 scale: recorded IC50, unit nM.

Check out these entries, answers already filled in.
compound	testTarget	log10(IC50)
O=C(NCC1(c2ccc(C3CC3)nc2)CCC(F)(F)CC1)c1cccc(Cl)c1Cl	P2X7 receptor (Homo sapiens (Human))	0.11
Cc1c(Br)cccc1C(=O)NCC1(c2ccc(C(F)(F)F)nc2)CCC(F)(F)CC1	P2X7 receptor (Homo sapiens (Human))	-0.15
COc1cccc(C(=O)NCC(CC2CC2)c2cnc(C(F)(F)F)nc2)c1C (single isomer, unassigned; (-)) [(−)N-[3-cyclopropyl-2-[2-(trifluoromethyl)pyrimidin-5-yl]pro]	P2X7 receptor (Homo sapiens (Human))	0.15
Cc1ncc(C2(CNC(=O)c3cccc(Cl)c3Cl)CCOC2)cn1 (centres unmarked)	P2X7 receptor (Homo sapiens (Human))	1.18

Name the reported log10(IC50) value associated with the compound O=C(NCC(c1ccc(Cl)cc1)C1CCOCC1)c1c(F)cccc1Cl (centres unmarked) 1.48

----------
testTarget: P2X7 receptor (Homo sapiens (Human))
measurementProtocol: P2X7 FLIPR assay (BzATP-stimulated calcium fluorescence, antagonist IC50)
Type: cell-based
hey, just use True if measured IC50 is less than 60 nM, otherwise False

molecule	answerLabel
O=C(NCC(c1cnc(C(F)(F)F)nc1)C1CCC(F)(F)CC1)c1cccc(Cl)c1Cl (single isomer, unassigned; (-)) [(−)2,3-dichloro-N-[2-(4,4-difluorocyclohexyl)-2-[2-(trifluor]	True
N#Cc1ccccc1C(=O)NCC1(c2ccc(C(F)(F)F)nc2)CCC(F)(F)CC1	False
O=C(NCC1(c2ccc(C(F)(F)F)nc2)CCOCC1)c1cccc(Cl)c1Cl	True
Cc1ncc(C(CNC(=O)c2ccccc2Cl)C2CCOCC2)cn1 (single isomer, unassigned; (+)) [(+)2-chloro-N-[2-(2-methylpyrimidin-5-yl)-2-tetrahydropyran-]	False

--- query ---
IC50 under 60 nM? Item: `COc1cccc(C(=O)NCC2(c3ccc(C(F)(F)F)nc3)CCC(F)(F)CC2)c1C` True
